This section presents compounds with their documented Activity values.
# Test system: HeLa
# METHOD NOTES: Cell cycle arrest in human HeLa cells assessed as accumulation at G0/G1 phase phase at 25 uM after 24 hrs using […] by flow cytometry analysis relative to control
# Format: functional
The reply should contain only the number, in %.

| SMILES RECORD | MEASURED ATTRIBUTE | VALUE UNITS | ASSAY RESULT |
| --- | --- | --- | --- |
| CCN1CCN(c2nc(-c3cccs3)cc3cc(C)ccc23)CC1 | Activity | % | 63.92 |
| c1csc(-c2cc3ccccc3c(N3CCNCC3)n2)c1 | Activity | % | 67.7 |
| CCN1CCN(c2nc(-c3cccs3)cc3ccccc23)CC1 | Activity | % | 55.62 |
| Cc1ccc2c(N3CCNCC3)nc(-c3cccs3)cc2c1 | Activity | % | 1.89 |
| Cc1ccc2c(N3CCNCC3)nc(-c3cccs3)cc2c1.Cl | Activity | % | 1.64 |
| Cc1ccc2cc(-c3cccs3)nc(N3CCNCC3)c2c1 | Activity | % | 49.19 |
| Cl.c1csc(-c2cc3ccccc3c(N3CCNCC3)n2)c1 | Activity | % | 7.25 |
| Cl.Nc1nc(-c2cccs2)cc2ccccc12 | Activity | % | 56.01 |

In: Value wanted: Activity (HeLa) of entry CCN1CCN(c2nc(-c3cccs3)cc3ccccc23)CC1.Cl
Out: 54.43

In: State its Activity on HeLa: Nc1nc(-c2cccs2)cc2ccccc12
Out: 11.6
